The values you see were collected from the DeepSol protein solubility set.

test: soluble on expression in E. coli; label from the status in PepcDB or PDB records
measured-attribute: soluble on expression in E. coli

# annotated cases, reported soluble on expression in E. coli shown
{"sequence-entry": "MAHHHHHHMLFPTACPDLIAREHLFNTLLNPVVYRWMWGRLRSCFSDSEVMAYTNNLSCVSHSVVCELVNKYPHLHQHVFAGPVTVLNERKEAAVTAHAEPLMVDPVGWTRALAEVCRRDYDVQFALGERLEDAVTYLKYDVESTRSIRVSKPDPSHPEQRLFASEGYDVVILAAGASTGTMTLPNSRLPVLGLSGLSAVVQQPSGALKDAVWSLFQCRPHRSPAAAASSSSPEVDAPSSHEGVADPLARPAPGTLALLSSHCSPVWLHVAQ", "soluble on expression in E. coli": "soluble"}
{"sequence-entry": "APGVSTILDNRNNPIAWVYKQRRFEIPSEAIPQSMKDAIVSIEDRRFYEHKGVDIQGNLRAIVTNIFAGGVAQGASTIDQQYVKNFLLLVKSDNPEEQAAATETSIPRKLREMRMASTIDSTLSKDDILTRYLNLVHLGNGAFGVEAAARTYFGKGAPELSLAQSAMFAGIVQSSSY", "soluble on expression in E. coli": "not soluble"}
{"sequence-entry": "MTETATARRSRITPEREAELYEAVLDLLREVGYDALTMDAVAARTRSSKATLYRQWGGKPELVVKAIRHNKPGEIGDVDTGSLRGDLHALMVREDDCTMEQNSALMRGVAMALHQNPDLRQAFREQLIEPEMAEFQRVLQRAVDRGEIRADCPALDFLVHMMVGGFATRTLLDDQPPTREFLASYIDAVILPALGVSTH", "soluble on expression in E. coli": "not soluble"}
{"sequence-entry": "DLFFGWGRKKSGLKAMNLAKKYKAKFILLEDGFIRSLNLGVENSPSFSMVKDDIGIYYDATMPSKLENLLNTCEFKDEEIKQAKKAIELIKKYKISKYNNNLDIPDNYFQKDEKRVLIITQTANDASLEFGLAKDFKTLDMIKDAIKENPKSTIYIKIHPDVLSGKKQSDLDLNSLPKECILITENFNPIALLEFFDKVYTKTSGMGFEALMQECECICYGMPFYAGWGLTKDKLECKRRMQKRSLEEVFYAAYILYAEY", "soluble on expression in E. coli": "not soluble"}
{"sequence-entry": "MEKVKKIVLIGASGFVGSALLNEALNRGFEVTAVVRHPEKIKIENEHLKVKKADVSSLDEVCEVCKGADAVISAFNPGWNNPDIYDETIKVYLTIIDGVKKAGVNRFLMVGGAGSLFIAPGLRLMDSGEVPENILPGVKALGEFYLNFLMKEKEIDWVFFSPAADMRPGVRTGRYRLGKDDMIVDIVGNSHISVEDYAAAMIDELEHPKHHQERFTIGYLEHHHHHH", "soluble on expression in E. coli": "soluble"}

Moving on to another sequence below.
Input line: Can you look up the measured soluble on expression in E. coli of MSLDIQPFSMPLSSPLSTADGTIESRRGFLVRTEIDGVAGVGEAAPLPGWTESYDACQAALCGVEKPKQALEDNVFDDTPAARHAVSLAVADAAARRAGVPLYRRLGAGERVESVPVNATVGDGSPSATAEAVADAAAAGFPAAKVKVGNRSLDADIERIEAVRQRYPDIELRVDANGAWEFETAREAVESMSALGVAVLEQPLPAEALDNHRRLRGHGIDIALDEGLLRHGVDAAIAAEAADCLVCKPMALGGVDIARSAAERARADGWDVIVTTTIDGVVARAAAVHLAASVPDVRPCGLATGGRLASDVGPDAAPVSDGTAAVPQGKGNIPPLEGHHHHHH for me?
Output line: soluble

* * *

assay: soluble on expression in E. coli; label from the status in PepcDB or PDB records
measured-attribute: soluble on expression in E. coli

See these solved cases before continuing.
{"sequence-entry": "LNKTLFLGYAFLLTMATTSDKLASRSKLPDGPTGSSEEEEEFLEIPPFNKQYTESQLRAGAGYILEDFNEAQCNTAYQCLLIADQHCRTRKYFLCLASGIPCVSHVWVHDSCHANQLQNYRNYLLPAGYSLEEQRILDWQPRENPFQNLKVLLVSDQQQNFLELWSEILMTGGAASVKQHHSSAHNKDIALGVFDVVVTDPSCPASVLKCAEALQLPVVSQEWVIQCLIVGERIGFKQHPKYKHDYVSH", "measured-attribute": "soluble on expression in E. coli", "value-measured": "soluble"}
{"sequence-entry": "MAGVRQHGWRAIPAVCSEYGADTLPDRYRSDGRCLLFRQQAGISALKQELEVKTPYRAMNHPVIGVVTKADLASMEQISLVKCWLREAGAHNVLVTSAVNNNGVTELFALLHTEEGCR", "measured-attribute": "soluble on expression in E. coli", "value-measured": "not soluble"}
{"sequence-entry": "KPYQVVGEKQEILNLIDNTTLDVSFTLPVSYAESVSLSALKNAEMWVTMDSEPSKRIPGKFKEISTQPNIDTNSYEAIVTITRPTDRNLLTGMTGQVHIAKQNKSNAMTLPTSAWVNKQEKQGEVWVMDSSTQQVSKVTLSLNESGAIESGLDNNDYVVIAGVERLVEGQVVKAWIREEGI", "measured-attribute": "soluble on expression in E. coli", "value-measured": "not soluble"}
{"sequence-entry": "PREFVLRPAPQGRTVRCRLTRDKKGMDRGMYPSYFLHLDTEKKVFLLAGRKRKRSKTANYLISIDPTNLSRGGENFIGKLRSNLLGNRFTVFDNGQNPQRGYSTNVASLRQELAAVIYETNVLGFRGPRRMTVIIPGMSAENERVPIRPRNASDGLLVRWQNKTLESLIELHNKPPVWNDDSGSYTLNFQGRVTQASVKNFQIVHADDPDYIVLQFGRVAEDAFTLDYRYPLCALQAFAIALSSFD", "measured-attribute": "soluble on expression in E. coli", "value-measured": "soluble"}

Input line: Fill in the blank: the reported soluble on expression in E. coli of MSVFAFSFCAVVIMPNLLAMSDEETRGRQAMVANFVKDNQKTIRNGKGDKWMSNFLKTQNLTFHRSLSSPSAMSDSSSQNLVVLADVGTAACASGWTRYDLTGMCYQQSKKTMNWYQGEDYCWNLRPGAHSASVHSQEEAKWLNSLYRDKKNGGQMDSWIGLRRDCDNVTYIWTDGSPTDCLWWQPDYPKSEFAEFSCVTIWETDWLYDNPAYIPGQYDDMKECSDDGSNTPTTTTTMQTTTPSTTSTPTTTSTTTTTSASTTTISTTKPPTTQIDIEKCTSNCPVGWIYFGGLCYSKIQGPGRFVDFNSECTRLGGKLGEVSGADGNEALRLALTSNNGNKILDEAWIQHIGSYNNVASGYVGTAGSCYTVLKNSQTN is ____.
Output line: not soluble

Input line: Can you look up the measured soluble on expression in E. coli of MSFAPMLLATINNSIGNKDKHVSLEYLIGLFMDKKTTNLSNTDKYIIGTIQTEALEQEIEWFSQDYHIPMENILHVLSINPYQ for me?
Output line: not soluble

Input line: Request the reported soluble on expression in E. coli associated with MAHHHHHHMTAAADFALPDLVLFLRLYDSANVEDGQLLVQVMNEIHRQLFALAETAADAAVARGGSSTPSMAGTTIGEHDLDAANRGVKGISPAPSASPLPLPAMLYTMSSLGIVEEAVLDVVTSSAVQDGARGRRGLLYSQLRLYSVADLLQLLVALHRFGHQQQPSTKAVTMALRASLYRTSTTASRFHRRARSLKRALAARPQTPSSGEGRADAAAADADTGGVAAVIAADEELSSLAFGLGCPLFLLLEALTATATTVHRRTDVVAFLSDLIAVTAVAELTTAVHESRGRRSPAGCEDLAREAQEFVFAVSHQLLRAAKLTECMELPQILLSDVFAWSTTLSGRGVFVDGGEDNAVPSDRVAYYDHVTADLIKANSAE
Output line: not soluble

Input line: For the sequence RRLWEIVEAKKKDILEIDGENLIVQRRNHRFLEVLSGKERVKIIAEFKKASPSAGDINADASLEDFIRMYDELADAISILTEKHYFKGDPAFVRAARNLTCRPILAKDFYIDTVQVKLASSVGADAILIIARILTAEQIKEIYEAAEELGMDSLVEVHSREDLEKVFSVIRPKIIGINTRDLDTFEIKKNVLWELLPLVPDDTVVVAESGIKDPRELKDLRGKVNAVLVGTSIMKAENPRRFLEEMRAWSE , what soluble on expression in E. coli is on record?
Output line: soluble

Input line: Any idea what soluble on expression in E. coli was measured for MAEASSANLGSGCEEKRHEGSSSESVPPGTTISRVKLLDTMVDTFLQKLVAAGSYQRFTDCYKCFYQLQPAMTQRIYDKFIAQLQTSIREEISDIKEEGNLEAVLNALDKIVEEGKVRKEPAWCEAQRCRVQQRCSLCVQAGGQRGSEETQALPVSMAGSPSPLPGSPGAQEGGV ?
Output line: not soluble

Input line: Find the recorded soluble on expression in E. coli belonging to MGWKMQATVTEIGKHAIDDSEKMIILFGETATDTLKQHAVIQSFPEKDQVTLAEGDHLKIGDTNYTITKVGSFANSNLQSIAHSTLIFADAPTDEDDVIRNGVYLTPHQLPKITIGTTIDYLVNGA and report it.
Output line: soluble

Input line: GET /values?readout=soluble on expression in E. coli&item= MSTLGHQYDNSLVSNAFGFLRLPMNFQPYDSDADWVITGVPFDMATSGRAGGRHGPAAIRQVSTNLAWEHNRFPWNFDMRERLNVVDCGDLVYAFGDAREMSEKLQAHAEKLLAAGKRMLSFGGDHFVTLPLLRAHAKHFGKMALVHFDAHTDTYANGCEFDHGTMFYTAPKEGLIDPNHSVQIGIRTEFDKDNGFTVLDACQVNDRSVDDVIAQVKQIVGDMPVYLTFDIDCLDPAFAPGTGTPVIGGLTSDRAIKLVRGLKDLNIVGMDVVEVAPAYDQSEITALAAATLALEMLYIQAAKKGE
Output line: soluble

Input line: Dear colleague, I am looking for the recorded soluble on expression in E. coli of the following sequence: MPAPEAPTSTLPPERPLTNLQQQIQQLVSRQPNLTAGLYFFNLDSGASLNVGGDQVFPAASTIKFPILVAFFKAVDEGRVTLQERLTMRPDLIAPEAGTLQYQKPNSQYAALEVAELMITISDNTATNMIIDRLGGAAELNQQFQEWGLENTVINNPLPDMKGTNTTSPRDLATLMLKIGQGEILSPRSRDRLLDIMRRTVTNTLLPAGLGKGATIAHKTGDIGIVVGDAGMVDMPNGQRYVAAMMVKRPYNDPRGSELIRQVSRMVYQAFEKLSPPEQKLISEEDLNSAVDHHHHHH
Output line: soluble
